- experiment.description: Dissociation constant, pKa of the compound
- Assay type: physicochemical

| record.smiles | pKa |
| --- | --- |
| O=C(N1CCOCC1)N1CCC(Oc2ccc3c(c2)CCN(C2CCC2)CC3)CC1 | 9.2 |

* * *

- experiment.description: Volume of distribution at steady state in iv dosed rat after 1 hr
- Type: ADME, organism-based
- recorded.conditions: in vivo, read-out: Vdss
endpoint.name: Vd

| record.smiles | endpoint.name | recorded.measurement |
| --- | --- | --- |
| O=C(N1CCOCC1)N1CCC(Oc2ccc3c(c2)CCN(C2CCC2)CC3)CC1 | Vd | 4.6 L/kg |

* * *

- study.target: hERG (KCNH2) (Homo sapiens, UniProt Q12809)
- Sequence (Q12809 whole entry): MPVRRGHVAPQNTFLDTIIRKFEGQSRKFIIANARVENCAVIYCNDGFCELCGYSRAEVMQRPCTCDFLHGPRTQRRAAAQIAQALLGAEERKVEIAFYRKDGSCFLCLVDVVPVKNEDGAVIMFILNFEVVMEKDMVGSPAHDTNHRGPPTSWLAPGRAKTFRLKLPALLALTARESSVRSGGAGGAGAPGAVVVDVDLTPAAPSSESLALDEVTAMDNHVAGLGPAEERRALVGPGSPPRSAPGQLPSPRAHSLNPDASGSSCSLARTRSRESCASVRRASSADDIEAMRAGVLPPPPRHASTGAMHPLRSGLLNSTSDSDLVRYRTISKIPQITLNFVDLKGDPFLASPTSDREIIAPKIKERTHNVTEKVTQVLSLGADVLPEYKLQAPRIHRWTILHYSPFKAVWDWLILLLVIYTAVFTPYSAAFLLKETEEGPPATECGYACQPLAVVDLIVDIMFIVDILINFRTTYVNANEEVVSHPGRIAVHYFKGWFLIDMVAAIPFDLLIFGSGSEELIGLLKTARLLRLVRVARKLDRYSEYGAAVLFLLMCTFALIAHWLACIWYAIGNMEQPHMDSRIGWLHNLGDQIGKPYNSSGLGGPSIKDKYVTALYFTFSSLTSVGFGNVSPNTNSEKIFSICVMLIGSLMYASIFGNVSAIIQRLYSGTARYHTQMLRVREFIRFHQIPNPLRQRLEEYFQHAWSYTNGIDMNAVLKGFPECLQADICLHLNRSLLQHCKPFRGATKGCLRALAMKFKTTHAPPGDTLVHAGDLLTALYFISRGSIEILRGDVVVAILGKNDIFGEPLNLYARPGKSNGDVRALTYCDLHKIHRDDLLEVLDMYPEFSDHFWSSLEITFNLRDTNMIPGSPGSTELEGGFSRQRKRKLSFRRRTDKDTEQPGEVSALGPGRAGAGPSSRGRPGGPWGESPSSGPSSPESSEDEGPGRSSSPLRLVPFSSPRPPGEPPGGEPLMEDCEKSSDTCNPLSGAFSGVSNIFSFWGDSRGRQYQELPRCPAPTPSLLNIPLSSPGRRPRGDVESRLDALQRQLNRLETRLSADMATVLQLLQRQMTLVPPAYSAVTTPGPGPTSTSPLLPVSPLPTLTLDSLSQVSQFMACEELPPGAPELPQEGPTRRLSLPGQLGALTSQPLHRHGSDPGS
- experiment.description: Inhibition of human ERG at 10 uM by patch clamp assay

| record.smiles | inhibition at 10 µM |
| --- | --- |
| O=C(N1CCOCC1)N1CCC(Oc2ccc3c(c2)CCN(C2CCC2)CC3)CC1 | < 30% |

Data origin, for the record: ChEMBL document CHEMBL3091427
